The compounds listed here are annotated with their IC50.
Target: recombinant JAK2 (JAK2 JH1 domain) (Homo sapiens, UniProt O60674)
Construct: 50 nM JAK2 JH1 domain (Upstate)
Sequence (O60674 849-1124 limits assumed): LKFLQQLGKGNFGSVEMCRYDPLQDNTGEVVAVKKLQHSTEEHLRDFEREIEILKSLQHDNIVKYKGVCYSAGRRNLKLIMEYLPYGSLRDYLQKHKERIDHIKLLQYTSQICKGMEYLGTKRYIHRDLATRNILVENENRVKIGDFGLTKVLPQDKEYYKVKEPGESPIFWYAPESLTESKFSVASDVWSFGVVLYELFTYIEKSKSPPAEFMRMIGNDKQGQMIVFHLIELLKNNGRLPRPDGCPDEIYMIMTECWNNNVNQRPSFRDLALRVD
Experiment: JAK2 Kinase Activity Inhibition Assay and Determination of IC50 (HTRF)
Details: HTRF kinase assay, 15 μM MgATP, 50 nM JAK2 JH1 domain
Lab book: enter the figure in nM, no units written.

See these solved cases before continuing.
| Compound | Number |
| --- | --- |
| NC(=O)c1cn(-c2ccccc2)nc1Nc1ccnc(CO)c1 [Example 3] | 860 |
| CS(=O)(=O)c1ccc(Nc2nn(-c3ccccc3)cc2C(N)=O)cc1 [Example 1] | 170 |
| NC(=O)c1cn(-c2ccccc2)nc1Nc1ccc(CN2CCS(=O)(=O)CC2)cc1 [Example 12] | 36 |
| CC(C)(O)c1ccc(Nc2nn(-c3ccccc3)cc2C(N)=O)cc1 [Example 14] | 81 |
| CNC(=O)c1ccc(Nc2nn(-c3ccccc3)cc2C(N)=O)cc1 [Example 2] | 160 |
| NC(=O)c1cn(-c2ccccc2)nc1Nc1ccc(C(=O)N2CCOCC2)cc1 [Example 4] | 94 |
| CN1CCN(C(=O)c2ccc(Nc3nn(-c4ccccc4)cc3C(N)=O)cc2)CC1 [Example 9] | 38 |
| NC(=O)c1cn(-c2ccccc2)nc1Nc1ccccc1 [Example 8] | 480 |

Proceeding to the next compound to report its IC50.
// returns reported IC50 for input CC(C)(C)c1ccc(-n2cc(C(N)=O)c(Nc3ccc(S(C)(=O)=O)cc3)n2)cc1 [Example 17]
8.1

FYI, the data here is from patent US8415346B2.
